The following compounds are shown together with reported pKi values.
- System: Plasmodium falciparum
- method: Inhibitory activity against Plasmodium falciparum 68 neutral proteinase.
- Format: functional
pKi: −log10 of the molar value. Peptide text beside a SMILES is read from it. * marks the point of attachment. Boc = CC(C)(C)OC(=O)*

CCN(CC)C(=O)[C@H](CCCCN)NC(=O)CNC(=O)[C@H](CC(C)C)NC(=O)[C@@H](NC(=O)[C@H](O)[C@@H](O)[C@H](O)[C@H](O)CO)C(C)C : < 2.60
CCNC(=O)CNC(=O)[C@H](CCCN=C(N)N)NC(=O)[C@@H]1CCCN1C(=O)[C@H](CC(=O)O)NC(=O)OC(C)(C)C (Boc-DPRG-NHEt) : < 2.60

Attention now turns to another entry.
Would you kindly share the measured pKi for `CC(C)C[C@H](NC(=O)[C@@H](NC(=O)[C@H](O)[C@@H](O)[C@H](O)[C@H](O)CO)C(C)C)C(=O)N(C)CC(=O)N[C@@H](CCCN=C(N)N)C(=O)N(C)CC(=O)O` ?
2.60
